Origin of values: ChEMBL document CHEMBL4190318

Target: Acid ceramidase (Rattus norvegicus) (UniProt Q6P7S1)
Experiment: Inhibition of rat acid ceramidase expressed in HEK293 cells assessed as remaining activity at 20 uM using N-lauroylceramide as substrate after 30 mins by LC-MS analysis (reference value: 100 +/- 21.4 %)
Type: cell-based
Parameter: Activity (%)

Chemical Structure: O=C(CCCCCc1ccc(O)cc1)N1CCOC1=O
Parameter: Activity
Value Observed: 95.1
--
Chemical Structure: O=C(CCCCCc1ccccc1)N1CCOC1=O
Parameter: Activity
Value Observed: 90.6
--
Chemical Structure: O=C(CCCCCc1cccc(Cl)c1)N1CCOC1=O
Parameter: Activity
Value Observed: 85.3
--
Chemical Structure: O=C1OCCN1C(=O)c1ccc(OC2CCCCC2)cc1
Parameter: Activity
Value Observed: 81.7

* * *

Molecular target: N-acylethanolamine-hydrolyzing acid amidase (Rattus norvegicus)
Sequence (Q5KTC7 whole entry): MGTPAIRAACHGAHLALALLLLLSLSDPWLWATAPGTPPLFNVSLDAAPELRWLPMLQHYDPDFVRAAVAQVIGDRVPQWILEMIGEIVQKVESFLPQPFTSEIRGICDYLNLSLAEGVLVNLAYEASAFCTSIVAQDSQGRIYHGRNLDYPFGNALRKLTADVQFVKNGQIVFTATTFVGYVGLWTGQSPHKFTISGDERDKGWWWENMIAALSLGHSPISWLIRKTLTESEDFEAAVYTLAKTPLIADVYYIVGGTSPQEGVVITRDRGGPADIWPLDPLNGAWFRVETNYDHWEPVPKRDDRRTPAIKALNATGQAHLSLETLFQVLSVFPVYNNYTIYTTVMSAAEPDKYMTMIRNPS
Assay: Inhibition of rat NAAA expressed in HEK293 cells using heptadecenoylethanolamide as substrate after 30 mins by HPLC-MS/MS analysis
pIC50: −log10 of the molar value.
Parameter: pIC50

Some molecules with known pIC50 results, for comparison:
Molecule: O=C(CCCCCc1ccc(CO)cc1)N1CCOC1=O
Target Or Test System: N-acylethanolamine-hydrolyzing acid amidase (Rattus norvegicus)
pIC50: 6.72
--
Molecule: O=C1OCCN1C(=O)c1ccc(OC2CCCC2)cc1
Target Or Test System: N-acylethanolamine-hydrolyzing acid amidase (Rattus norvegicus)
pIC50: 6.92
--
Molecule: O=C(CCCCCc1ccc(C(F)(F)F)cc1)N1CCOC1=O
Target Or Test System: N-acylethanolamine-hydrolyzing acid amidase (Rattus norvegicus)
pIC50: 5.98

P: O=C1OCCN1C(=O)c1ccc(OC2CCOCC2)cc1
Q: Cc1ccc(Oc2ccc(C(=O)N3CCOC3=O)cc2)cc1
R: O=C(CCCCCc1ccc(O)c(F)c1)N1CCOC1=O
S: CCCCOc1ccc(C(=O)N2CCOC2=O)cc1
*Q* Rank order required: pIC50, descending. Answer with the labels in sequence, matching the requested order.
*A* R, P, S, Q
(R: 6.80, P: 6.48, S: 5.87, Q: 5.19)

A: CCC(CC)Oc1ccc(C(=O)N2CCOC2=O)cc1
B: O=C1OCCN1C(=O)c1ccc(OC2CCCCC2)cc1
C: O=C1OCCN1C(=O)c1ccc(OC2CCC(O)CC2)cc1 (stereo not drawn)
D: O=C(CCCCCc1cccc(O)c1)N1CCOC1=O
E: O=C(CCCCCc1cccc(I)c1)N1CCOC1=O
*Q* Number of molecules to sort: 5. Sort criterion: pIC50, ascending. Reply with the labels, ordered as the question asks.
*A* D, E, A, C, B
(D: 5.06, E: 5.51, A: 6.32, C: 6.68, B: 7.04)

* * *

Target: N-acylethanolamine-hydrolyzing acid amidase (Rattus norvegicus)
Assay: Inhibition of rat NAAA expressed in HEK293 cells using heptadecenoylethanolamide as substrate after 30 mins by HPLC-MS/MS analysis
pIC50: −log10 of the molar value.
Parameter: pIC50

Chemical Structure: Cc1cccc(Oc2ccc(C(=O)N3CCOC3=O)cc2)c1
pIC50: 5.28
//
Chemical Structure: COc1cccc(CCCCCC(=O)N2CCOC2=O)c1
pIC50: 4.79
//
Chemical Structure: O=C(CCCCCc1ccc(Br)cc1)N1CCOC1=O
pIC50: 5.07
//
Chemical Structure: O=C(CCCCCc1ccc(Cl)cc1)N1CCOC1=O
pIC50: 5.34
//
Chemical Structure: CSc1cccc(CCCCCC(=O)N2CCOC2=O)c1
pIC50: 4.89

P: O=C(CCCCCc1cccc(Br)c1)N1CCOC1=O
Q: O=C1OCCN1C(=O)c1ccc(Oc2cccc(Cl)c2)cc1
R: Nc1ccc(CCCCCC(=O)N2CCOC2=O)cc1
S: O=C(CCCCCc1cccc(C(F)(F)F)c1)N1CCOC1=O
*Q* Sort these molecules on pIC50 so the largest reading comes first. Use the labels to give the requested order.
*A* S, P, Q, R
(S: 7.24, P: 6.37, Q: 5.11, R: 4.80)

1: CCCCCCOc1ccc(C(=O)N2CCOC2=O)cc1
2: O=C(CCCCCc1ccc(F)c(Cl)c1)N1CCOC1=O
*Q* // returns 1 or 2 , whichever has the lower pIC50 When you have decided, please share the label of that item.
*A* 1

* * *

Reported pIC50 values are given for each entry in this list.
Target: UniProt Q5KTC7
Sequence (Q5KTC7 whole entry): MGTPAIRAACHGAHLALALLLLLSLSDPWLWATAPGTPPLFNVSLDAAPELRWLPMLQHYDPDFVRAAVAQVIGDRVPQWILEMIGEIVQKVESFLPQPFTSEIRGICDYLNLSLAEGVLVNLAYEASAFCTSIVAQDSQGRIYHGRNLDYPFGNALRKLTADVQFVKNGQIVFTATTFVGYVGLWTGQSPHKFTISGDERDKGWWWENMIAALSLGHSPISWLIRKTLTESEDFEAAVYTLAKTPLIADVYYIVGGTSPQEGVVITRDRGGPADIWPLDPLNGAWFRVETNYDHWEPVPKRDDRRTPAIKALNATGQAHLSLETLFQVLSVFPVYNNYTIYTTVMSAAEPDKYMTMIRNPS
Assay: Inhibition of rat NAAA expressed in HEK293 cells using heptadecenoylethanolamide as substrate after 30 mins by HPLC-MS/MS analysis
pIC50: −log10 of the molar value.

# count of solved cases: 5
Chemical Structure: O=C(CCCCCc1ccc(I)cc1)N1CCOC1=O
Target Or Test System: UniProt Q5KTC7
Value Observed: < 4.70
//
Chemical Structure: O=C(CCCCCc1ccccc1O)N1CCOC1=O
Target Or Test System: UniProt Q5KTC7
Value Observed: < 4.70
//
Chemical Structure: Nc1cccc(CCCCCC(=O)N2CCOC2=O)c1
Target Or Test System: UniProt Q5KTC7
Value Observed: < 4.70
//
Chemical Structure: O=C(CCCCCc1ccccc1Cl)N1CCOC1=O
Target Or Test System: UniProt Q5KTC7
Value Observed: < 4.70
//
Chemical Structure: COc1ccc(CCCCCC(=O)N2CCOC2=O)cc1
Target Or Test System: UniProt Q5KTC7
Value Observed: < 4.70

# value of pIC50, UniProt Q5KTC7, item CSc1ccc(CCCCCC(=O)N2CCOC2=O)cc1 = < 4.70

Test item O=C1OCCN1C(=O)c1ccc(Oc2ccc(O)cc2)cc1 ; UniProt Q5KTC7; reported pIC50 was < 4.70

The recorded pIC50 with UniProt Q5KTC7 for O=C(O)c1ccc(CCCCCC(=O)N2CCOC2=O)cc1 was < 4.70

Record O=C(CCCCCc1ccc(O)c(Cl)c1)N1CCOC1=O / UniProt Q5KTC7, pIC50 recorded as < 4.70

Known value: UniProt Q5KTC7 pIC50 of the molecule Cc1ccccc1CCCCCC(=O)N1CCOC1=O equals < 4.70

// returns pIC50 for O=C(CCCCCc1cccc(CO)c1)N1CCOC1=O with UniProt Q5KTC7; value = < 4.70
